- Tested target: T1, biotinylated synthetic human Amyloid beta 1-42 peptide (human, UniProt P05067 672-713, biotinylated (N-terminal biotin in Example 4))
- T1 construct: domain: Amyloid beta 1-42 peptide; Numbers 1-42 count on the Amyloid beta peptide, not on APP; also called biotinylated human Amyloid beta 1-42; N-terminal biotin Abeta 1-42
- T1 sequence (P05067 672-713 limits assumed): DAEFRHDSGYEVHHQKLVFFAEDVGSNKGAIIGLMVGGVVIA
- Assay details: SPR (ProteOn); biotinylated peptide on streptavidin chip, scFv in solution
Readout kind: koff (s⁻¹)
Numeric only. Scale: s⁻¹

Abet0342 scFv (scFv, V domains shown, not shown: small tags and cut ends, Purified scFv expressed in E. coli) VH: EVQLLESGGGLVQPGGSLRLSCAASGFDFRRSVMWWVRQAPGKGLEWVSVIGAQTQNKAYADSVKGRFTISRDNSKNTLYLQMNSLRAEDTAVYYCAREWMDHSRPYYYYGMDVWGQGTLVTVSS VL: SYELTQPPSVSVSPGQTASITCSGHNLEDKFASWYQQKPGQSPVLVIYRDDKRPSGIPERFSASNSGDTATLTISGTQAMDEADYYCQAQDSTTRVFGGGTKLTVL | 5.73e-05
Abet0332 scFv (scFv, V domains shown, not shown: small tags and cut ends, Purified scFv expressed in E. coli) VH: EVQLLESGGGLVQPGESLRLSCAASSDSWHTDIMWWVRQAPGKRLEWVSVIGNSNKKIAYADSVKGRFTISRDNSKNTLYLQMNSLRAEDTAVYYCAREWMDHSRPYYYYGMDVWGQGTLVTVSS VL: SYELTQPPSVSVSPGQTASITCSGHNIGAKWVSWYQQKPGQSPILVIYRDDKRPSGIPERFSASNSGHTATLTISGTQATDEADYYCQAQGQVTRSFGGGTKLTVL | 0.000129

IN: Which koff value is on record for Abet0322b scFv (scFv, V domains shown, not shown: small tags and cut ends, Purified scFv expressed in E. coli) VH: EVQLLESGGGLVQPGGSLRLSCAASNEEFQYNPMWWVRQAPGKGLEWVSVIGSSGGATVYADAVKGRFTISRDNSENTLYLQMNSLRAEDTAVYYCAREWMDHSRPYYYYGMDVWGQGTLVTVSS VL: SYELTQPPSVSVSPGQTASITCSGHNLGDKFASWYQQKPGQSPVLVIYRDDKRPSEIPERFSASNSGHTATLTISGTQATDEADYYCSSQDTVTRVFGGGTKLTVL ?
OUT: 0.000165
